log10 microsomal CLint for assorted molecules
Assay: Human liver microsomal stability of compound in microsomal protein, PBS buffer pH 7.4, NADPH, glucose-6-phosphate and glucose-6-phosphate dehydrogenase media. Aliquotes were taken at 5 time points and after stopping the reaction, supernatants were analyzed using HPLC coupled with a tandem mass spectrometer. The elimination constant, half-life, and intrinsic clearance are determined as results using linear regression analysis.
Format: ADME, microsomes, Microsome
Conditions: liver microsomes
In plain terms, each number is the log10 of measured microsomal CLint in µL/min/mg.

Sample answers from the record:
INSERT INTO assay_data (chem_smiles, experimental_readout, recorded_number) VALUES
  ('O=C(NCCCF)[C@H](Nc1ccc2c(c1)CNC2)c1cc(Cl)cc(C2CC2)c1', 'log10 microsomal CLint', 1.20),
  ('O=C(Nc1cc(Cl)cc(C(=O)Nc2cccc(-n3nn[nH]c3=O)c2)c1)OCc1ccccc1', 'log10 microsomal CLint', 1.05),
  ('CNC(=O)c1cc(Cl)ccc1NS(=O)(=O)c1ccc(Oc2ccccc2Cl)cc1', 'log10 microsomal CLint', 2.03),
  ('CN(c1ccc2c(c1)CNC2)[C@H](C(=O)NCC(F)F)c1cc(Cl)cc(C2CC2)c1', 'log10 microsomal CLint', 1.23),
  ('C=CC[C@H](Nc1ccc(-c2nn[nH]n2)cc1)c1cc(Cl)cc(NC(=O)OCc2ccccc2)c1', 'log10 microsomal CLint', 1.00);

The molecule identified as "NCc1cccc(NC(=O)c2cc(OCc3ccccc3)ccc2CNC(=O)OCc2ccccc2)c1" registered its log10 microsomal CLint at 1.32

The molecule identified as "COc1cc(Cc2c(-c3ccc(F)cc3)noc2C)nc(N2CCNCC2)n1" registered its log10 microsomal CLint at 1.18

The molecule listed as "NCc1cccc(NC(=O)CN(C(=O)OCc2ccccc2)c2ccc(OCc3ccccc3)cc2)c1" has a reported log10 microsomal CLint of 1.04

Note to self: log10 microsomal CLint recorded for "NCc1cccc(NC(=O)c2cc(Cl)cc(CN)c2)c1" was 1.32

Value of log10 microsomal CLint reported for the molecule "O=C(NCC(F)(F)F)c1cc(Cl)c(F)cc1NS(=O)(=O)c1ccc(Oc2ccccc2Cl)cc1" is 1.85

Record "CNC(=O)c1cc(Cl)c(F)cc1NS(=O)(=O)c1ccc(Oc2ccccc2Cl)cc1" . Reported log10 microsomal CLint: 1.85

Form: molecule = "N#C[C@H](Nc1ccc2c(c1)CNC2)c1cc(Cl)cc2[nH]ncc12" ; log10 microsomal CLint = 1.01

Quick note, log10 microsomal CLint for "NCCc1ccc(NC(=O)c2cc(Cl)cc(NC(=O)OCc3ccccc3)c2)cc1" landed at 1.24

So for "NCc1cccc([C@@H]2C[C@H]2c2cc(Cl)cc(NC(=O)OCc3ccccc3)c2)c1" , the logged log10 microsomal CLint turned out to be 1.06

So, "CCCC[C@@H](NC(=O)OC(C)(C)C)C(=O)N[C@@H](C(=O)NCc1ccc(CN)cc1)c1ccc(OCc2ccccc2)cc1" ? Its log10 microsomal CLint was 1.75

* * *

Assay: Mouse liver microsomal stability of compound in microsomal protein, PBS buffer pH 7.4, NADPH, glucose-6-phosphate and glucose-6-phosphate dehydrogenase media. Aliquotes were taken at 5 time points and after stopping the reaction, supernatants were analyzed using HPLC coupled with a tandem mass spectrometer. The elimination constant, half-life, and intrinsic clearance are determined as results using linear regression analysis.
Type: ADME, microsomes, Microsome
Details: liver microsomes
experimental-readout: microsomal CLint (µL/min/mg)
# unit: µL/min/mg | format: bare number

Recorded results for 2 compounds are shown here.
INSERT INTO measurements (chem_smiles, units_of_measure, recorded_number) VALUES
  ('O=C(Nc1cc2c(cc1Br)CNC2)c1cc(F)cc2[nH]ncc12', 'µL/min/mg', 299),
  ('O=C(NCC(F)F)[C@H](Nc1cc2c(cc1Br)CNC2)c1cc(Cl)cc(C2CC2)c1', 'µL/min/mg', 22.9);

microsomal CLint reported for this compound "O=C(Nc1ccc2c(c1)CNC2)c1cc(Cl)cc2ccncc12" : 24.5

Reference source for all entries: ChEMBL document CHEMBL5665440
